System: MDA-MB-231 breast
TEST SUMMARY: NCI-60 one-dose screen, 48 h
RUN PARAMETERS: 10 µM unless noted
About 83,000 compounds went through this panel and 20% of them were active in at least one assay; those are over-represented in the sample as a whole. The source made the active and inactive calls. How the source made its calls: active means growth percent below 10; inactive means the rest.
Return exactly one item of true (1) (active), false (0) (inactive)

{"columns": ["COMPOUND", "SYSTEM", "CLASS"],
 "data": [
  ["Cc1ccc(NCc2cn(-c3ccc(C(=O)O)cc3)nc2-c2ccc(C(=O)O)cc2)cc1", "MDA-MB-231 breast", "false (0)"],
  ["COc1cccc(CNC(=O)c2cccc(C3CC(=O)c4c(cc(OC)c(OC)c4OC)O3)c2)c1 (centres undefined)", "MDA-MB-231 breast", "false (0)"],
  ["COc1cc(-c2nn(-c3ccc(NC(=O)Nc4cc(C(F)(F)F)cc(C(F)(F)F)c4)cc3)cc2-c2ccncc2)ccc1Cl", "MDA-MB-231 breast", "true (1)"],
  ["N#Cc1c2cccnc2c2nnc3cc(Cl)c(Cl)cc3n12", "MDA-MB-231 breast", "true (1)"]
]}

// return assay outcome for CCCC(=O)Nc1ccccc1C(=O)O
false (0)

Look up the recorded call for COC(=O)c1ccc2[nH]c(O)c(C(=Nc3ccc(N(C)C(=O)CN4CCN(C)CC4)cc3)c3ccc4c(c3)OCO4)c2c1 in this test.
false (0)

Outcome logged for COc1ccc(Cn2cc3c(c2-c2ccc(OC)cc2)CCc2cnoc2-3)cc1 in this assay:
true (1)

Query: recorded result category for Cc1ccc2c(c1)C(=O)CCS2 in this test
false (0)

Give the logged outcome of this assay for the following compound: O=C(CN1CCN(c2cccc(Cl)c2)CC1)N1CCN(c2nnc(-c3ccc(Cl)cc3)c(-c3ccc(Cl)cc3)n2)CC1
false (0)

====

System: CAKI-1 renal
TEST SUMMARY: NCI-60 one-dose screen, 48 h
RUN PARAMETERS: 10 µM unless noted
About 83,000 compounds went through this panel and 20% of them were active in at least one assay; those are over-represented in the sample as a whole. Active and inactive are the calls of the source. How the source made its calls: active means growth percent below 10; inactive means the rest.
Respond using exactly one of the listed classes: active, inactive

{"columns": ["MOLECULE", "CLASS"],
 "data": [
  ["OCCN1CCN(CC/C=C2/c3ccccc3Sc3ccc(C(F)(F)F)cc32)CC1", "inactive"],
  ["O=C(CCl)NC1c2ccccc2Oc2ccccc21", "inactive"],
  ["CC(=O)N1N=C(c2ccc(Cl)cc2)CC1c1cn(-c2ccccc2)nc1-c1ccc([N+](=O)[O-])cc1 (stereo not drawn)", "inactive"]
]}

Query: recorded result category for COc1ccc(Nc2c3ccccc3nc3ccccc23)cc1 in this test
inactive

Hi team, can someone confirm the assay call for COc1cc(-c2c3c(cn2CCN2CCCCC2)-c2oncc2CC3)cc(OC)c1OC ?
inactive

Per the records of this test, what outcome belongs to CN1NC(c2ccccc2)NN(C)C1=O ?
inactive

What is the recorded call for this molecule in the test? CC1(C)C(O)NC(Cl)=C(C#N)C1(C#N)C#N (stereo not drawn)
inactive

GET /call?item= O=C1C(=O)c2ccccc2C(O)=C1CCCc1ccc(Oc2ccccc2)cc1 returns the recorded outcome of this test.
inactive

====

Tested on: CCRF-CEM leukemia
TEST SUMMARY: NCI-60 one-dose screen, 48 h
RUN PARAMETERS: 10 µM
The panel holds about 83,000 compounds, 20% with a hit somewhere; the sample as a whole holds those more often. Activity calls are given as the source filed them. Rule for the calls: active = growth percent below 10; inactive = the rest.
Please answer using one outcome listed in active, inactive

Here are 6 compounds together with their reported answers.
{"columns": ["COMPOUND", "SYSTEM", "CLASS"],
 "data": [
  ["CCOC(=O)c1sc(NS(=O)(=O)c2ccccc2)nc1C", "CCRF-CEM leukemia", "inactive"],
  ["CCOC(=O)c1ccc2n1CCCc1cnc(NC(C)=O)nc1-2", "CCRF-CEM leukemia", "inactive"],
  ["O=C(/C=C/c1ccc(Cl)cc1)c1ccc(Cl)cc1", "CCRF-CEM leukemia", "inactive"],
  ["COc1ccc2c(N)ncc(C#Cc3cc(C(=O)Nc4ccc(CN5CCN(C)CC5)c(C(F)(F)F)c4)cnc3C)c2c1", "CCRF-CEM leukemia", "active"],
  ["CC(C)(C)C(=O)CCCCCCCC/C=C/CCCC(O)c1ccco1 (stereo not given)", "CCRF-CEM leukemia", "active"],
  ["COc1cc2c(/C=C3\\C(=O)Nc4ccc(Br)cc43)c(Cl)n(C)c2cc1C", "CCRF-CEM leukemia", "active"]
]}

Now for a further compound.
Name the outcome recorded for CC(=O)OCC1O[C@@H](OC(C)=O)[C@@H](NC(=O)NS(=O)(=O)c2ccccc2)C(OC(C)=O)[C@@H]1OC(C)=O (stereo not given in full) in the assay.
inactive

Data credit: PubChem BioAssay (NCI)
